Origin of values: patent US6613770B1

Measured property: melting point

Recorded melting point (compound O=C(NC1C2CC3CC(C2)CC1C3)c1c(CN2CCC(N3CCCCC3)CC2)c(-c2ccccc2)nc2ccccc12 (centres unmarked) [Example 10] ): 219 to 220 °C

Recorded melting point (compound O=C(N[C@H]1CCc2ccccc21)c1c(CN2CCC(N3CCC(O)CC3)CC2)c(-c2ccccc2)nc2ccccc12 [Example 6] ): 98 to 100 °C

Recorded melting point (compound C[C@H](NC(=O)c1c(CN2CCOCC2)c(-c2ccccc2)nc2ccccc12)C(C)(C)C [Example 7] ): 207 to 209 °C

###

Counter-ions that a name gives are not always drawn.
Some molecules, each annotated with its measured melting point.

# Molecule, melting point
measured = [
    ("CC(C)N1CCN(Cc2c(-c3ccccc3)nc3ccccc3c2C(=O)NC2CCCCC2)CC1 [Example 11]", "161 to 163 °C"),
    ("CCC(CC)NC(=O)c1c(CN2CCN(C(C)C)CC2)c(-c2ccccc2)nc2ccccc12 (as salt: HCl) [Example 4]", "235 to 238 °C"),
    ("CC(C)NC(=O)c1c(CN2CCN(C(C)C)CC2)c(-c2ccccc2)nc2ccccc12 (as salt: HCl) [Example 3]", "198 to 200 °C"),
    ("O=C(N[C@H]1CCCc2ccccc21)c1c(CN2CCC(N3CCC(O)CC3)CC2)c(-c2ccccc2)nc2ccccc12 [Example 5]", "144 to 146 °C"),
]

Next up:
Recorded melting point (molecule CC(C)CNC(=O)c1c(CN2CCN(C(C)C)CC2)c(-c2ccccc2)nc2ccccc12 [Example 2] ): 215 to 217 °C
